Tested on: Blumeria graminis f. sp. tritici (also known as Erysiphe graminis f. sp. tritici, the causal agent of wheat powdery mildew)
protocol: Test D: wheat powdery mildew, preventive spray on wheat seedlings, visual disease rating
Type: in vivo
experimentalSetup: no asterisk: standard test suspension concentration; 100 = 100% disease control, 0 = no control relative to controls
# maps each entry to its Test D rating (% disease control, wheat powdery mildew)
parameter: Test D rating (% disease control, wheat powdery mildew) (%)

# molecule, unitAbbreviation, assayResult
records = [
    ("Cc1ncc(C(O)c2ccc(F)cc2F)n1-c1ccc(F)cc1Cl (stereo not shown)", "%", 0),
    ("Cc1nc(Br)c(C(O)c2ccc(F)cc2F)n1-c1c(F)cc(F)cc1Br (stereo not shown)", "%", 72),
    ("Cc1cc(F)ccc1C(O)c1c(Br)nc(C)n1-c1ccc(F)cc1Cl (stereo not shown)", "%", 73),
    ("Cc1nc(Br)c(C(O)c2ccc(F)cc2F)n1-c1c(F)cccc1Br (stereo not shown)", "%", 97),
    ("Cc1ncc(C(O)c2cccnc2F)n1-c1c(F)cc(F)cc1F (stereo not shown)", "%", 0),
    ("Cc1nc(Br)c(C(O)c2ccc(F)cc2F)n1-c1ccc(F)cc1F (stereo not shown)", "%", 0),
    ("Cc1ncc(C(O)c2ccc(F)cc2F)n1-c1c(F)cccc1Br (stereo not shown)", "%", 0),
    ("Cc1ncc(C(O)c2ccc(F)cc2F)n1-c1c(F)cc(F)cc1Br (stereo not shown)", "%", 13),
    ("Cc1nc(Br)c(C(O)c2ccc(F)cc2F)n1-c1ccc(F)cc1Cl (stereo not shown)", "%", 90),
    ("Cc1cc(F)ccc1C(O)c1c(Br)nc(C)n1-c1c(F)cccc1Br (stereo not shown)", "%", 56),
    ("Cc1cc(F)ccc1C(O)c1cnc(C)n1-c1ccc(F)cc1Cl (stereo not shown)", "%", 35),
    ("Cc1cc(F)ccc1C(O)c1cnc(C)n1-c1c(F)cccc1Br (stereo not shown)", "%", 0),
    ("Cc1nc(Cl)c(C(O)c2ccc(F)cc2F)n1-c1c(F)cccc1Cl (stereo not shown)", "%", 98),
    ("Cc1ncc(C(O)c2ccc(Cl)cc2)n1-c1ccc(F)cc1F (stereo not shown)", "%", 0),
    ("Cc1cc(F)ccc1C(O)c1cnc(C)n1-c1ccc(F)cc1F (stereo not shown)", "%", 0),
    ("COc1cc(F)c(-n2c(C(O)c3ccc(F)cc3F)cnc2C)c(F)c1 (stereo not shown)", "%", 0),
    ("Cc1cc(F)ccc1C(O)c1c(Cl)nc(C)n1-c1c(F)cccc1Br (stereo not shown)", "%", 0),
    ("Cc1nc(Br)c(C(O)c2ccc(Cl)cc2)n1-c1ccc(F)cc1F (stereo not shown)", "%", 0),
    ("Cc1nc(Br)c(C(O)c2ccc(F)cc2Br)n1-c1c(F)cccc1Cl (stereo not shown)", "%", 90),
]

The reported numbers originate from patent US20130143929A1.
